Experiment: Cytotoxicity: LDH leakage from platelets
Format: cell-based
Conditions: rat, Cytotoxicity (%)
property-label: cytotoxicity at 5 min, 400 μM (%)
State the answer as a number, implicitly in %.

State the recorded cytotoxicity at 5 min, 400 μM for this entry: "O=C1C[C@@H](c2ccc(O)cc2)Oc2cc(O)cc(O)c21"
2.11

* * *

Assay: Cytotoxicity: LDH leakage from platelets
Format: cell-based
Settings: rat, washed platelets; naringenin 400 μM; LDH leakage; Table 1; read-out: Cytotoxicity (%)
property-label: cytotoxicity at 5 min, 400 μM (%)
Unit % implied. Number only.

Recorded cytotoxicity at 5 min, 400 μM of "O=C1C[C@@H](c2ccc(O)cc2)Oc2cc(O)cc(O)c21" , please.
1.94
